Origin of the recorded values: PubChem BioAssay (NCI)

assay procedure: NCI Yeast Anticancer Drug Screen. Data for the cln2 rad14 strain (AID 165);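 also: 0% = growth equal to vehicle treated cultures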
test parameters: S. cerevisiae cln2 rad14 strain, at 5.0 µM (retest, dose inferred, filed as 0.5), active compounds read high
About 79,000 compounds went through this panel and 15% of them were active in at least one assay; those are over-represented in the sample as a whole. The source made the active and inactive calls. Rule as the data show it: active = growth inhibition above about 70%; inactive = the rest.
Measured growth inhibition of individual entries
property: growth inhibition

- compound: "Cc1ccccc1C1SCc2nc3ccccc3n21 (stereo not given)"
  property: "growth inhibition"
  result: "-13% (inactive)"
- compound: "c1cc2c(c3c1CN(C1CCCCC1)CO3)OCN(C1CCCCC1)C2"
  property: "growth inhibition"
  result: "-12% (inactive)"
- compound: "Nc1ccc(N)c2c1C(=O)c1ccccc1C2=O"
  property: "growth inhibition"
  result: "3% (inactive)"
- compound: "CCCCCCCCCCN(CCCCCCCCCC)C1CC(OC2CC(O)(C(O)CO)Cc3c(O)c4c(c(O)c32)C(=O)c2c(OC)cccc2C4=O)OC(C)C1O (stereo not given)"
  property: "growth inhibition"
  result: "7% (inactive)"
- compound: "Cn1cc(-c2c3c(cc4c2OCO4)OCO3)c2ccccc21"
  property: "growth inhibition"
  result: "-9% (inactive)"
- compound: "CCOC(CCl)Oc1c(C(C)C)cc(C(C)C)c(Cl)c1C (stereo not given)"
  property: "growth inhibition"
  result: "4% (inactive)"
- compound: "N#CC1=C(C#N)Sc2nc3cc(Cl)ccc3nc2S1"
  property: "growth inhibition"
  result: "25% (inactive)"
- compound: "OC(CCN1CCOCC1)(c1cccc(Cl)c1)C1CCCCC1 (stereo not given)"
  property: "growth inhibition"
  result: "2% (inactive)"
- compound: "CN(Cc1cnc2nc(N)nc(N)c2n1)c1ccc(C(=O)NC(CCC(=O)O)C(=O)O)cc1C(F)(F)F (stereo not given)"
  property: "growth inhibition"
  result: "-16% (inactive)"
- compound: "C[n+]1c(-c2ccc(/C=N\\NC(=O)c3ccc(C(=O)N/N=C/c4ccc(-c5cn6ccsc6[n+]5C)cc4)cc3)cc2)cn2ccsc21"
  property: "growth inhibition"
  result: "27% (inactive)"

* * *

assay procedure: NCI Yeast Anticancer Drug Screen. Data for the bub3 strain (AID 167)
test parameters: S. cerevisiae bub3 mutant strain, at 5.0 µM (retest, dose inferred, filed as 0.5), active compounds read high
About 79,000 compounds went through this panel and 15% of them were active in at least one assay; those are over-represented in the sample as a whole.

- molecule: "N#CC1Sc2ccccc2N1C(=O)c1ccccc1 (stereo unspecified)"
  reading unit: "%"
  growth inhibition: -10
- molecule: "CC1(C)COC(c2cccc(C(O)c3ccc(Cl)cc3)c2)=N1 (stereo unspecified)"
  reading unit: "%"
  growth inhibition: -21
- molecule: "OC(CC(CC(O)(C(F)(F)F)C(F)(F)F)=NN=C(CC(O)(C(F)(F)F)C(F)(F)F)CC(O)(C(F)(F)F)C(F)(F)F)(C(F)(F)F)C(F)(F)F"
  reading unit: "%"
  growth inhibition: 37
- molecule: "C/C(=N/NC(N)=S)C(C)C"
  reading unit: "%"
  growth inhibition: 1
- molecule: "O=[N+]([O-])c1cccc(F)c1O"
  reading unit: "%"
  growth inhibition: 0
- molecule: "CC(=O)N1c2ccccc2Sc2c1ccc1ccccc21"
  reading unit: "%"
  growth inhibition: 6
- molecule: "CN/N=C(\\C)C(CN1CCCCC1)C(C1=C(O)c2ccccc2OC1)c1ccccc1 (stereo unspecified)"
  reading unit: "%"
  growth inhibition: 10
- molecule: "S=c1[nH]c2cc(-c3ccccc3)ccc2o1"
  reading unit: "%"
  growth inhibition: 19
- molecule: "CCCCCCCn1ccnc1NCCCCCCCCCCNc1nccn1CCCCCCC"
  reading unit: "%"
  growth inhibition: 1
- molecule: "CCc1cccc(C(C)C)c1N1C(=O)C(=O)C(c2nc3ccccc3s2)C(=O)C1=O"
  reading unit: "%"
  growth inhibition: 34
- molecule: "Nc1nnc(Cc2ccc(Br)cc2)o1"
  reading unit: "%"
  growth inhibition: 4

* * *

assay procedure: NCI Yeast Anticancer Drug Screen. Data for the sgs1 mgt1 strain (AID 161);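 also: 0% = growth of cultures given vehicle only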
test parameters: S. cerevisiae sgs1 mgt1 strain, at 50.0 µM, active compounds read high
This is part of a sample that, as a whole, favours compounds with a hit. Of some 79,000 tested, about 15% had one in any assay.
Label 1 when growth inhibition >= 90%; otherwise -1.

- molecule: "CCCC(C)NCCCCCNc1cc(OC)cc2cccnc12 (configuration not stated)"
  assigned category: -1
- molecule: "O=C(CN1CCCCC1)CC(O)(C(F)(F)F)C(F)(F)F"
  assigned category: -1
- molecule: "CC(=O)c1sc(Nc2ccc(Cl)c(Cl)c2)nc1C"
  assigned category: 1
- molecule: "CCOC(=O)c1cc(NC(=O)c2cc(NC(=O)c3cc(NC(=O)c4c(-c5ccccc5)noc4C)cn3C)cn2C)cn1C"
  assigned category: -1
- molecule: "O=C1OC(=O)c2cccc3cccc1c23"
  assigned category: 1
- molecule: "CCCCCCCCCCCC[n+]1ccc(C)cc1"
  assigned category: 1
- molecule: "CCN(CC)CCCNc1c2c(Cl)cc(Cl)cc2nc2nc(=O)[nH]c(C)c12"
  assigned category: -1
- molecule: "O=C1NC(=O)c2cccc3cccc1c23"
  assigned category: -1
- molecule: "CC(C)(CC#N)c1cc(CC(C)(C)c2cc(CC(C)(C)c3cc(CC(C)(C)C4(C)OCCO4)no3)no2)no1"
  assigned category: -1
- molecule: "CC(SC1=CC(=O)c2c(O)ccc(O)c2C1=O)C(=O)O (configuration not stated)"
  assigned category: -1
- molecule: "CC(SC1=CC(=O)c2c(Cl)ccc(O)c2C1=O)C(=O)O (configuration not stated)"
  assigned category: -1
- molecule: "O=P1(NCC2CCCO2)OCC2(CO1)COP(=O)(NCC1CCCO1)OC2 (configuration not stated)"
  assigned category: 1
- molecule: "CCN(CC)CCCCSc1ccc([N+](=O)[O-])cc1[N+](=O)[O-]"
  assigned category: -1
- molecule: "CCC[N+]1=C(/C=C/c2ccc3cccnc3c2O)C(C)(C)c2ccccc21"
  assigned category: -1
- molecule: "NC1=NCN(C2OC(COCc3ccccc3)C(OCc3ccccc3)C2OCc2ccccc2)C(=O)N1 (configuration not stated)"
  assigned category: 1
- molecule: "O=c1ccc2nc3ccccc3sc-2c1"
  assigned category: -1
- molecule: "Fc1ccccc1CN1COc2c(cc(Cl)c3cccnc23)C1"
  assigned category: 1
- molecule: "CCOc1ccc(N=Nc2c(C)nn(C(=S)SC)c2OCC)cc1"
  assigned category: 1
- molecule: "CCCCCCCCCCCC(=O)c1c(O)c2ccccc2oc1=O"
  assigned category: -1
- molecule: "Cc1c2cnccc2c(C)c2c1c1ccccc1n2CCCCCCNCc1ccccc1"
  assigned category: 1
- molecule: "CC(=O)Oc1ccc(/C=C2\\N=C(c3ccccc3)OC2=O)c(OC(C)=O)c1"
  assigned category: -1
- molecule: "CC(C)OP(=O)(OC(C)C)/C(I)=N/Nc1ccc([N+](=O)[O-])cc1"
  assigned category: -1
- molecule: "COC(=O)c1nc(NC#N)[nH]c(=O)c1CCCCCc1cnc(NC#N)nc1"
  assigned category: -1
- molecule: "Cc1cc(=O)n(-c2ccc(F)cc2)n1C"
  assigned category: -1
- molecule: "COc1ccc(N=Cc2ccccc2O)cc1"
  assigned category: -1
- molecule: "CN1C(=O)c2cccc3cc([N+](=O)[O-])cc(c23)C1=O"
  assigned category: -1
- molecule: "ONC(=Nc1ccccc1)c1ccccc1"
  assigned category: 1
- molecule: "O=P(O)(O)Oc1c(O)c2ccccc2c2ccccc12"
  assigned category: 1
- molecule: "CC/C(=C\\c1cccc(OC)c1)c1ccncc1"
  assigned category: 1
- molecule: "C=C1CC(COc2ccc3c(C)cc(=O)oc3c2)(c2ccccc2)OC1=O (configuration not stated)"
  assigned category: -1
- molecule: "Cn1cc(NC(=O)Nc2cc(C(=O)Nc3cc(C(=O)Nc4cc(S(=O)(=O)O)c5cc(S(=O)(=O)O)cc(S(=O)(=O)O)c5c4)n(C)c3)n(C)c2)cc1C(=O)Nc1cc(C(=O)Nc2cc(S(=O)(=O)O)c3cc(S(=O)(=O)O)cc(S(=O)(=O)O)c3c2)n(C)c1"
  assigned category: -1
- molecule: "O=C1OC2(c3ccc(O)cc3Oc3cc(O)ccc32)c2c1c(-c1ccccc1)c(-c1ccccc1)c(-c1ccccc1)c2-c1ccccc1"
  assigned category: -1
- molecule: "O=C1CCCC1CN1CCOCC1 (configuration not stated)"
  assigned category: -1
- molecule: "CCCCCCC(O)CCOC(C)=O (configuration not stated)"
  assigned category: -1
- molecule: "c1ccc(C(c2ccccc2)c2ccc3ccccc3n2)cc1"
  assigned category: -1
- molecule: "CCOC1(OCC)C(C)C(c2ccccc2)C(c2ccccc2)C1C (configuration not stated)"
  assigned category: -1
